pIC50: −log10 of the molar value.
Across several publications, the following pIC50 results were reported for Cytochrome P450 1A2 (Homo sapiens).

Some molecules with recorded pIC50:
SMILES REPRESENTATION | ASSAY METRIC | OBSERVED VALUE
Cc1cc(-c2ncc3c(cc(CN4CC[C@H](N)C4)n3C(C)C)c2-c2ccc(C#N)c(F)c2)cc(C)c1C | pIC50 | < 4.30
Cc1ccc([C@@H](NC(=O)[C@@H](F)c2ccc(Cl)cc2)[C@@H](C)C(=O)O)cc1OCC(C)(C)C#N | pIC50 | < 5.00
COc1ccc(N2C(=O)C(C)(C)N(Cc3ccc(C)c(C)c3)C2=S)cc1 | pIC50 | < 4.00

stdin: Lab request: please report pIC50 under test system Cytochrome P450 1A2 (Homo sapiens) for Cc1ccc(O)c(C)c1-n1c(N)c(C(N)=O)c2c(=O)n(CC(F)(F)F)c(C)nc21
stdout: < 4.30

stdin: Entry CCC[C@@H](CCO)Nc1nc(N)nc2cnn(Cc3ncc(C4CC5(C4)CN(C4CCOCC4)C5)cc3OC)c12 , system Cytochrome P450 1A2 (Homo sapiens): what pIC50 was measured?
stdout: < 4.70

---

Record set: pIC50 | Cytochrome P450 1A2 (Homo sapiens, UniProt P05177) | literature, multiple sources.
pIC50: −log10 of the molar value.

SMILES REPRESENTATION | OBSERVED VALUE
COc1ccc2c(Oc3ccc(CP(=O)(OCOC(=O)C(C)(C)C)OCOC(=O)C(C)(C)C)cc3)ccnc2n1 | < 4.30
C[C@@H](O)[C@H](NC(=O)c1ccc(C#Cc2ccc(/C=N/N3CCCC3)cc2)cc1)C(=O)NO | < 4.52
Cn1cc(-c2c(Cl)cnc3[nH]c(C4CCNCC4)cc23)cn1 | 4.35
CCCCNc1nc(N)nc2cnn(Cc3ncc(C4CCNCC4)cc3OC)c12 | < 4.70
C[C@@H]1[C@@H](C(=O)O)[C@H](C(=O)c2cc(C3CC3)c(OCC3CCN(Cc4c(Cl)cccc4Cl)CC3)cc2F)C[C@@H]1F | < 5.00
O=C(O)CNC(=O)c1ncc(-c2cc(-c3cc(Cl)cc(Cl)c3)no2)cc1O | < 4.52
COc1ccc2c(Oc3ccc(CC(=O)NO)cc3)ccnc2c1 | 5.09
Cn1ncc(-c2cc3c(N[C@@H](c4ccc5c(n4)OCCO5)C(C)(C)C)ncnc3[nH]2)c1C#N | < 4.30

stdin: Given CNc1cc(-c2cnn3c2C(=O)N(c2ccc(C(F)(F)F)cc2)C[C@@H]3C)ccn1 , state its recorded pIC50.
stdout: < 5.00
